Provenance of the data: patent US9624269B2

# Target: human BACE1 (rhBACE1) (Homo sapiens, UniProt P56817)
# Sequence (P56817 46-457 limits assumed): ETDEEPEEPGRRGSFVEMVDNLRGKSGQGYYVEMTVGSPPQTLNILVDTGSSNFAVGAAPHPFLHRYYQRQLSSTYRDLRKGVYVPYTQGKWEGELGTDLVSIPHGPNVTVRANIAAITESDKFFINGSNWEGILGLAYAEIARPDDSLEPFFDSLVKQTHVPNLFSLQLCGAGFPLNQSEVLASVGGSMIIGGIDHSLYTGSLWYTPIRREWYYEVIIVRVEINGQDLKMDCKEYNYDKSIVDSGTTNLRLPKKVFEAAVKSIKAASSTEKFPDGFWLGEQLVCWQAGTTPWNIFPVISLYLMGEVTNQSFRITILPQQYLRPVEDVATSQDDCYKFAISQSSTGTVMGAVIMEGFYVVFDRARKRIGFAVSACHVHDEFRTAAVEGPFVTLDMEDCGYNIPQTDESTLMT
# Experiment Description: Caliper BACE1 activity assay (microfluidic capillary electrophoresis)
# Assay type: biochemical
# Design: containing human BACE1 (extracellular domain)
# Experimental Conditions: 12 nM rhBACE1, 1 μM FAM-substrate, pH 4.4
# Description: An MCE assay reactions can be carried out in a standard enzymatic reaction, initiated by the addition of substrate to enzyme and 4× compound, containing human BACE1 (extracellular domain), amyloid precursor protein beta secretase active site peptide (FAM-[…]-CONH2 (SEQ ID NO: 20)), 50 mM NaOAc pH 4.4 and 0.1% CHAPS. […] Substrate conversion is calculated from the electrophoregram using HTS Well Analyzer software (Caliper Life Sciences). […]
Positions of bridges follow the written chain, without caps; N, C: chain ends. Residues, ends and D or L forms follow the SMILES beside them.
Assay Metric: pIC50
Scale: pIC50 equals -log10([C]), with [C] in mol/L.

Compound	Assay Metric	Result Value
CC[C@H](C)[C@@H]1NC(=O)CNC(=O)[C@H](CC(C)C)NC(=O)[C@H](CC(C)C)NC(=O)[C@H](CCCNC(=N)N)NC(=O)[C@@H](NC(=O)[C@H](Cc2ccc(O)cc2)NC(=O)[C@H](CCSC)NC(=O)[C@H](CO)NC(=O)[C@H](CCC(=O)O)NC(=O)[C@H](CCC(=O)O)NC(=O)[C@H](CC(N)=O)NC(C)=O)CSSC[C@@H](C(=O)NCC(N)=O)NC(=O)CNC1=O [BACE020] (Ac-NEESMYCRLLGIGCG-NH2; disulfide 7-14)	pIC50	7.96

Turning now to a further record.
The recorded pIC50 for entry CC[C@H](C)[C@@H]1NC(=O)CNC(=O)[C@H](CC(C)C)NC(=O)[C@H](CC(C)C)NC(=O)[C@H](CCCNC(=N)N)NC(=O)[C@@H](NC(=O)[C@H](Cc2ccc(O)cc2)NC(=O)[C@H](CCSC)NC(=O)[C@H](CO)NC(=O)[C@H](CCC(=O)O)NC(=O)[C@H](CCC(=O)O)NC(=O)[C@H](C)NC(C)=O)CSSC[C@@H](C(=O)NCC(N)=O)NC(=O)CNC1=O [BACE042] (Ac-AEESMYCRLLGIGCG-NH2; disulfide 7-14) equals 7.92

* * *

# Target: human BACE1 (rhBACE1) (Homo sapiens)
# Experiment Description: Caliper BACE1 activity assay (microfluidic capillary electrophoresis)
# Format: biochemical
# Design: containing human BACE1 (extracellular domain)
# Experimental Conditions: 12 nM rhBACE1, 1 μM FAM-substrate, pH 4.4
pIC50: −log10 of the molar value.
Assay Metric: pIC50

Below are worked cases with known answers.
Substance	Target	pIC50
Ac-KEESIYSRLMGLGSG-NH2 [BACE025]	human BACE1 (rhBACE1) (Homo sapiens)	≤ 5.00
Ac-PEESLYSRLLALGSG-NH2 [BACE028]	human BACE1 (rhBACE1) (Homo sapiens)	< 5.00

Turning now to a further record.
The recorded pIC50 for entry Ac-NEESMYSRLLGIGSG-NH2 [BACE027] equals < 5.00

* * *

Measured IC50, listed per entry.
# Target: human BACE1 (rhBACE1) (Homo sapiens, UniProt P56817)
# Experiment Description: Caliper BACE1 activity assay (microfluidic capillary electrophoresis)
# Assay type: biochemical
# Set-up: containing human BACE1 (extracellular domain)
# Experimental Conditions: 12 nM rhBACE1, 1 μM FAM-substrate, pH 4.4
Positions of bridges follow the written chain, without caps; N, C: chain ends. Residues, ends and D or L forms follow the SMILES beside them.
// return numeric value only (unit: nM, not printed)

Molecule	Units Of Measure	IC50
CC[C@H](C)[C@@H]1NC(=O)CNC(=O)[C@H](CC(C)C)NC(=O)[C@H](CC(C)C)NC(=O)[C@H](CCCNC(=N)N)NC(=O)[C@@H](NC(=O)[C@H](Cc2ccc(O)cc2)NC(=O)[C@H](CCSC)NC(=O)[C@H](CO)NC(=O)[C@H](CCC(=O)O)NC(=O)[C@H](CCC(=O)O)NC(=O)[C@H](CC(N)=O)NC(C)=O)CSSC[C@@H](C(=O)NCC(N)=O)NC(=O)[C@H](C)NC1=O [BACE053] (Ac-NEESMYCRLLGIACG-NH2; disulfide 7-14)	nM	7

Short answer on human BACE1 (rhBACE1) (Homo sapiens, UniProt P56817) for CC[C@H](C)[C@@H]1NC(=O)CNC(=O)[C@H](CC(C)C)NC(=O)[C@H](CC(C)C)NC(=O)[C@H](CCCNC(=N)N)NC(=O)[C@@H](NC(=O)[C@H](Cc2ccccc2)NC(=O)[C@H](CCSC)NC(=O)[C@H](CO)NC(=O)[C@H](CCC(=O)O)NC(=O)[C@H](CCC(=O)O)NC(=O)[C@H](CC(N)=O)NC(C)=O)CSSC[C@@H](C(=O)NCC(N)=O)NC(=O)CNC1=O [BACE055] (Ac-NEESMFCRLLGIGCG-NH2; disulfide 7-14) , IC50: 11

Short answer on human BACE1 (rhBACE1) (Homo sapiens, UniProt P56817) for CC[C@H](C)[C@@H]1NC(=O)CNC(=O)[C@H](CC(C)C)NC(=O)[C@H](CC(C)C)NC(=O)[C@H](CCCNC(=N)N)NC(=O)[C@@H](NC(=O)[C@H](Cc2ccc(O)cc2)NC(=O)[C@H](CCSC)NC(=O)[C@H](Cc2c[nH]cn2)NC(=O)[C@H](CCC(=O)O)NC(=O)[C@H](CCC(=O)O)NC(=O)[C@H](CC(N)=O)NC(C)=O)CSSC[C@@H](C(=O)NCC(N)=O)NC(=O)CNC1=O [BACE056] (Ac-NEEHMYCRLLGIGCG-NH2; disulfide 7-14) , IC50: 3570
